Assay: log P determination by HPLC on reversed-phase column (C 18), EEC directive 79/831 Annex V.A8
Format: physicochemical
Details: reversed-phase HPLC column (C 18), pH 2.3, pH 2.3 (marked a), 0.1% aqueous phosphoric acid/acetonitrile, 43° C.
Experimental: The log P values given in the tables and Preparation Examples above are determined in accordance with EEC directive 79/831 Annex V.A8 by HPLC (High Performance Liquid Chromatography) using a reversed-phase column (C 18). Temperature: 43° C. In the acidic range, the determination is carried out at pH 2.3 using the mobile phases 0.1% aqueous phosphoric acid and acetonitrile; linear gradient from 10% acetonitrile to 90% acetonitrile (marked^a) in the table). […]
observation-type: chromatographic logP

| compound | value-measured |
| --- | --- |
| O=C(OCc1cccnc1)[C@H]1CC(c2c(F)cccc2F)=NC1c1ccc(-c2ccc(OC(F)(F)F)cc2)cc1 (stereo partly shown) [Example 54] | 3.59 |
| C=C(C)CCOC(=O)[C@H]1CC(c2c(F)cccc2F)=NC1c1ccc(-c2ccc(OC(F)(F)F)cc2)cc1 (stereo partly shown) [Example 27] | 5.48 |
| O=C(NCc1ccc(Cl)cc1)[C@H]1CC(c2c(F)cccc2F)=NC1c1ccc(-c2ccc(OC(F)(F)F)cc2)cc1 (stereo partly shown) [Example 81] | 4.41 |
| CCCCCNC(=O)[C@H]1CC(c2c(F)cccc2F)=NC1c1ccc(-c2ccc(OC(F)(F)F)cc2)cc1 (stereo partly shown) [Example 62] | 4.37 |
| O=C(NCC(F)(F)F)[C@H]1CC(c2c(F)cccc2F)=NC1c1ccc(-c2ccc(OC(F)(F)F)cc2)cc1 (stereo partly shown) [Example 86] | 3.94 |
| COCCOC(=O)[C@H]1CC(c2c(F)cccc2F)=NC1c1ccc(-c2ccc(OC(F)(F)F)cc2)cc1 (stereo partly shown) [Example 24] | 4.37 |
| CCCCNC(=O)[C@H]1CC(c2c(F)cccc2F)=NC1c1ccc(-c2ccc(OC(F)(F)F)cc2)cc1 (stereo partly shown) [Example 61] | 4.03 |

###

test: log P determination by HPLC on reversed-phase column (C 18), EEC directive 79/831 Annex V.A8; type: physicochemical; conditions: reversed-phase HPLC column (C 18), pH 2.3, pH 2.3 (marked a), 0.1% aqueous phosphoric acid/acetonitrile, 43° C.
observation-type: chromatographic logP

| compound | value-measured |
| --- | --- |
| COC(=O)[C@H]1CC(c2ccccc2Cl)=N[C@H]1c1ccc(-c2ccc(OC(F)(F)F)cc2)cc1 (racemic) [Example 5] | 5.05 |
| O=C(NCc1ccccc1Cl)[C@H]1CC(c2c(F)cccc2F)=NC1c1ccc(-c2ccc(OC(F)(F)F)cc2)cc1 (some centres unmarked) [Example 79] | 4.46 |
| N#CCCOC(=O)[C@H]1CC(c2c(F)cccc2F)=NC1c1ccc(-c2ccc(OC(F)(F)F)cc2)cc1 (some centres unmarked) [Example 25] | 4.08 |
| CC1CCC(OC(=O)[C@H]2CC(c3c(F)cccc3F)=NC2c2ccc(-c3ccc(OC(F)(F)F)cc3)cc2)CC1 (some centres unmarked) [Example 48] | 6.22 |
| O=C(NCc1cccc(Cl)c1)[C@H]1CC(c2c(F)cccc2F)=NC1c1ccc(-c2ccc(OC(F)(F)F)cc2)cc1 (some centres unmarked) [Example 80] | 4.46 |
| O=C(OCc1ccccn1)[C@H]1CC(c2c(F)cccc2F)=NC1c1ccc(-c2ccc(OC(F)(F)F)cc2)cc1 (some centres unmarked) [Example 53] | 4.13 |
| CC(OC(=O)[C@H]1CC(c2c(F)cccc2F)=NC1c1ccc(-c2ccc(OC(F)(F)F)cc2)cc1)C1CCCCC1 (some centres unmarked) [Example 50] | 6.54 |
| CCCN(CCC)C(=O)[C@H]1CC(c2c(F)cccc2F)=NC1c1ccc(-c2ccc(OC(F)(F)F)cc2)cc1 (some centres unmarked) [Example 73] | 4.92 |
